TESTED SYSTEM: T1, mouse Siglec15-his protein (mouse)
T1 construct: In house made
T1 chain: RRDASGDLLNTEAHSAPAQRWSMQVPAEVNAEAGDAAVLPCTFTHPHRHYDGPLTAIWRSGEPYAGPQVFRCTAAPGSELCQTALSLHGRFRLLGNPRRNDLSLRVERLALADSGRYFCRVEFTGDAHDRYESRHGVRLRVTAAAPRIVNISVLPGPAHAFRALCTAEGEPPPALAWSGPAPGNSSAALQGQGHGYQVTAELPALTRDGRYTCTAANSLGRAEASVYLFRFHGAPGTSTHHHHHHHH
PROTOCOL DETAILS: SPR Biacore T200, antibody captured by anti-human IgG, antigen as analyte, 1:1 fit
REPORTED PROPERTY: Kd (pM)
State the answer as a number, implicitly in pM.

Any idea what its Kd is? The binder is anti-Siglec15 benchmark (ch5G12) (antibody, human IgG1, kappa, V domains shown, ch5G12 (US 20190202912A1); also called BM; Siglec15-ch5G9) VH: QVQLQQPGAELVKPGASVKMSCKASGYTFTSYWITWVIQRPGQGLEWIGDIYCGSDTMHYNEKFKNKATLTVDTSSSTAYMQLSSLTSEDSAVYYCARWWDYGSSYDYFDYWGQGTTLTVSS VL: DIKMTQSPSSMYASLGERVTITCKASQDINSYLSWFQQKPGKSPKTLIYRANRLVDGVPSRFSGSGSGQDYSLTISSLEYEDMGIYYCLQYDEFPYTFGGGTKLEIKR
170
